protocol: Primary redox qHTS assay for identification of artifact compounds. (AID 1845223)
run-conditions: Amplex Red/HRP redox cycling with DTT, fluorescence; series mostly up to 53.8 µM
Results filed as inconclusive are left out. Activity calls are given as the source filed them. Calls follow the shape of the dose curve; as a rule, active = well fitted activation curve with a large enough effect; inconclusive = small, poorly fitted or top-dose-only effect; inactive = flat fitted curve, though single readings scatter.
measured-parameter: outcome

INSERT INTO results (compound, recorded_measurement) VALUES
  ('O=c1[nH]c2ccccc2n1C1CCN(CCCC(c2ccc(F)cc2)c2ccc(F)cc2)CC1', 'inactive'),
  ('CNC(=O)N1N=C(c2ccc(N)cc2)c2cc3c(cc2CC1C)OCO3 (centres undefined)', 'inactive'),
  ('C[C@H]1O[C@@H](O[C@H]2[C@@H](O)C[C@H](O[C@H]3[C@@H](O)C[C@H](O[C@H]4CC[C@@]5(C)[C@H](CC[C@@H]6[C@@H]5CC[C@]5(C)[C@@H](C7=CC(=O)OC7)CC[C@]65O)C4)O[C@@H]3C)O[C@@H]2C)C[C@H](O)[C@@H]1O', 'inactive'),
  ('CNC(=O)c1ccc(N2C(=S)N(c3ccc(C#N)c(C(F)(F)F)c3)C(=O)C23CCC3)cc1F', 'inactive');

====

protocol: Quantitative High-Throughput drug screen in 47 multiple myeloma cell lines against the NCATS MIPE library collection: KMS34_JCRB cell viability assay (AID 1918985); also: nearly all actives have a fitted effect of over 40% in size
run-conditions: KMS34 myeloma viability, CellTiter-Glo ATP luminescence, 48 h; series mostly up to 45.8 µM
Records with an inconclusive call do not appear. Calls of active or inactive are those of the source. Calls come from the whole dose curve; as a rule, active = well fitted cell-killing curve with a large enough effect; inconclusive = small, poorly fitted or top-dose-only effect, or effect the other way; inactive = no such curve, though single readings can be large or run the other way.
Outcomes: active, inactive

INSERT INTO measurements (molecule, group) VALUES
  ('C[C@@H]1O[C@@H](O[C@H]2C[C@@H](O)[C@]3(CO)[C@H]4[C@H](O)C[C@]5(C)[C@@H](C6=CC(=O)OC6)CC[C@]5(O)[C@@H]4CC[C@]3(O)C2)[C@H](O)[C@H](O)[C@H]1O', 'active'),
  ('C[C@@H]1[C@@H](C(=O)C[C@H]2O[C@@H]3O[C@]4(C)CC[C@@H]5[C@H](C)CC[C@@H]([C@H]2C)[C@@]35OO4)O[C@@H]2O[C@]3(C)CC[C@H]4[C@H](C)CC[C@@H]1[C@@]24OO3', 'active'),
  ('Cc1cccc(C)c1NC(=O)CN1CCCC1=O', 'inactive'),
  ('CN1CCN(C(=O)O[C@H]2c3nccnc3C(=O)N2c2ccc(Cl)cn2)CC1', 'inactive'),
  ('COC1(CS(=O)c2ccccc2)CCN(CCc2c[nH]c3ccc(F)cc23)CC1 (configuration not stated)', 'inactive'),
  ('CC1=C2C[C@@H]3[C@@H](CC=C4C[C@@H](O)CC[C@@]43C)[C@@H]2CC[C@]12O[C@H]1C[C@H](C)CN[C@H]1[C@H]2C', 'inactive'),
  ('COc1ccc2c(c1OC)CN1CCc3cc4c(cc3C1C2)OCO4 (configuration not stated)', 'inactive');

====

Tested on: WaGa
protocol: qHTS assay to identify novel small-molecules to repurpose for Merkel cell carcinoma treatment (AID 1296009); also: nearly all actives have a fitted effect of over 60% in size
run-conditions: MCC and control cell lines, CellTiter-Glo viability, 72 h; series mostly up to 46 µM
Inconclusive results are not listed. Activity calls are given as the source filed them. The call rests on the fitted dose curve; in most records, active means well fitted inhibition curve with a large enough effect; inconclusive means small, poorly fitted or top-dose-only effect; inactive means flat fitted curve, though single readings scatter.
Outcomes: active, inactive

INSERT INTO results (molecule, group) VALUES
  ('CC(C)CC(N(C)C)C1(c2ccc(Cl)cc2)CCC1 (centres undefined)', 'inactive'),
  ('C[C@H]1O[C@@H](O[C@H]2[C@@H](O)C[C@H](O[C@H]3[C@@H](O)C[C@H](O[C@H]4CC[C@@]5(C)[C@H](CC[C@@H]6[C@@H]5CC[C@]5(C)[C@@H](C7=CC(=O)OC7)CC[C@]65O)C4)O[C@@H]3C)O[C@@H]2C)C[C@H](O)[C@@H]1O', 'active'),
  ('C#CCN(C)[C@H](C)Cc1ccccc1', 'inactive'),
  ('O=C(O)C(=O)c1cn(Cc2ccccc2)c2ccc(-c3ccc(OC(F)(F)F)cc3)cc12', 'inactive'),
  ('COc1ccc(C(CN(C)C)C2(O)CCCCC2)cc1 (centres undefined)', 'inactive'),
  ('CC[N+](CC)(CC)CC', 'inactive'),
  ('CCN(CC)CCOC(=O)C(O)(c1ccccc1)c1ccccc1', 'inactive'),
  ('CC(C)=CC1C(C(=O)OCc2cccc(Oc3ccccc3)c2)C1(C)C (centres undefined)', 'inactive'),
  ('CC[C@@H](CO)NC(=O)[C@@H]1C=C2c3cccc4[nH]cc(c34)C[C@H]2N(C)C1', 'inactive');

This collection of values is drawn from PubChem BioAssay (NCATS).
